Data provenance: PubChem BioAssay

assayedTarget: Nuclear receptor coactivator 2 (Homo sapiens) (UniProt Q15596)
Sequence (Q15596 whole entry, looked up): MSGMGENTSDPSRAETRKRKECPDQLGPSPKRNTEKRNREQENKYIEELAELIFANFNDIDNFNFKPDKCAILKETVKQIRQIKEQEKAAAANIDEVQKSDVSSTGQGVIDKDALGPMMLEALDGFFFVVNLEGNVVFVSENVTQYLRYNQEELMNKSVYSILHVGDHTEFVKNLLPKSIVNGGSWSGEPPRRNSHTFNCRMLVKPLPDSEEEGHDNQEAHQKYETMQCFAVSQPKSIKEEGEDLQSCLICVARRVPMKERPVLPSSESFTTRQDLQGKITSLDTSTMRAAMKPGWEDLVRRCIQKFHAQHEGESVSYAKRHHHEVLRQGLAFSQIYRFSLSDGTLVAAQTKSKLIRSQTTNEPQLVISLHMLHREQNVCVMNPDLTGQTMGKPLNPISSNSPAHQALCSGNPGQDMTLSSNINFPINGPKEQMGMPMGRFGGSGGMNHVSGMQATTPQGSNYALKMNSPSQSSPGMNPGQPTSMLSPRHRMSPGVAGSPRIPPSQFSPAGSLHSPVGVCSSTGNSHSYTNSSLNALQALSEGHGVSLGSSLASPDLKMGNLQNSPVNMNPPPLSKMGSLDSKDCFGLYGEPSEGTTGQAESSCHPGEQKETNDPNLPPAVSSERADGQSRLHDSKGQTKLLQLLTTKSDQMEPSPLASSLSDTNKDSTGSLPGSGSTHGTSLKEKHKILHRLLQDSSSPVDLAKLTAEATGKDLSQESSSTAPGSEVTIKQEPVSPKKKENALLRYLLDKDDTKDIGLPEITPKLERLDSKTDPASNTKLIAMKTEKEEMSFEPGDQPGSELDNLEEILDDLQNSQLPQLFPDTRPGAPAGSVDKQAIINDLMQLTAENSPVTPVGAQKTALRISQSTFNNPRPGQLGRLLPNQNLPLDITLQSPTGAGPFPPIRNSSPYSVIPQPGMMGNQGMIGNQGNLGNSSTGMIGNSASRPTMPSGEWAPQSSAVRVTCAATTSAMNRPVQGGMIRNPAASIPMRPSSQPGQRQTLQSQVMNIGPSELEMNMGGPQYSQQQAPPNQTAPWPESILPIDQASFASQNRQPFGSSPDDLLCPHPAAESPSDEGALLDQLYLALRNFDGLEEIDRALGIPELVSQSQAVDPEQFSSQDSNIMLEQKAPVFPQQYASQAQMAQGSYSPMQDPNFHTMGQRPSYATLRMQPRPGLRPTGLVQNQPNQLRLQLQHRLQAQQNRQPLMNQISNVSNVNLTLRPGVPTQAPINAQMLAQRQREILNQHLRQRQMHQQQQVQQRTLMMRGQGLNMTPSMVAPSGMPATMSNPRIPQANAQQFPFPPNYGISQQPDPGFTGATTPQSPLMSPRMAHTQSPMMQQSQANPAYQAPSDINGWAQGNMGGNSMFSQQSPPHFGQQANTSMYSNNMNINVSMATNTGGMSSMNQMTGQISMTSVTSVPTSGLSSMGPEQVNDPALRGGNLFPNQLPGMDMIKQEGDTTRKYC
procedureSummary: SRC2 coactivator transcriptional activity inhibitors, confirmation, cell-based, luminescence, HEK293, triplicate (AID 652008)
conditionDetails: HEK293 GAL4-SRC2 luciferase reporter, at 8.9 µM
Calls of active or inactive are those of the source.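 Rule for the calls: active = mean inhibition above 46.5%, the solvent-only control mean plus 3 SD; inactive = the rest.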
A correct response names exactly one class from t (active), f (inactive)

# example entries with known answers
>>> assignedclass("COc1ccc2nc(C)cc(Sc3nc4ccccc4s3)c2c1")
"t"
>>> assignedclass("Cc1ccc(C(C)C)c(OCc2ccc(C(=O)N/N=C/c3ccc(O)c(O)c3)cc2)c1")
"t"
>>> assignedclass("CCN1CCN(C(c2ccc(C(F)(F)F)cc2)c2ccc3cccnc3c2O)CC1 (configuration not stated)")
"f"
>>> assignedclass("O=C(c1ccc(Cl)cc1)C(CN1CCCC1)c1ccccc1 (configuration not stated)")
"t"
>>> assignedclass("O=C(NCc1cccnc1)c1cc(Sc2ccc(F)cc2F)nc2ccccc12")
"f"
>>> assignedclass("COc1ccc(/C=C2\\SC(=O)N(CCCC(=O)Nc3ccc(C(=O)O)cc3)C2=O)cc1")
"t"
>>> assignedclass("CCCCCCC(=O)N(O)C1CC(=O)N(c2ccc(C)cc2)C1=O (configuration not stated)")
"f"
>>> assignedclass("O=C(NCc1cccnc1)/C(=C/c1ccc(-c2ccc(Cl)cc2)o1)S(=O)(=O)c1ccccc1")
"t"

Returns: the outcome recorded for CCOC(=O)N1C(=O)[C@@](c2ccc(Cl)cc2)(C(C)C)N1C(=O)OCC in this assay.
f

Returns: the outcome recorded for COc1ccc(NC(=O)Cc2nnc(SCC(=O)Nc3ccc(F)cc3)n2C)cc1 in this assay.
f

Returns: the outcome recorded for COC(=O)c1ccc(Sc2nnnn2-c2ccccc2)c([N+](=O)[O-])c1 in this assay.
t

Returns: the outcome recorded for COc1ccc(S(=O)(=O)/N=C2\C=C(Nc3ccc(O)cc3)C(=O)c3ccccc32)cc1 in this assay.
t

Returns: the outcome recorded for Cc1cccc(C(=O)Nc2ccc(CC(=O)O)cc2)c1 in this assay.
f

---

assayedTarget: Nuclear receptor coactivator 1 (Homo sapiens)
procedureSummary: SRC1 coactivator transcriptional activity inhibitors, confirmation, cell-based, luminescence, quadruplicate (AID 588820)
conditionDetails: HEK293 GAL4-SRC1 luciferase reporter, at 3.6 µM
Active and inactive are the calls of the source.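 How the source made its calls: active means mean inhibition above 46.68%, the untreated control wells mean plus 3 SD; inactive means the rest.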
A correct response names exactly one class from Yes = active, No = inactive

# example entries with known answers
>>> assignedclass("COCCOc1ccc(C(F)(F)F)cc1NC(=O)c1ccc(C(F)(F)F)cc1")
"No"
>>> assignedclass("COc1ccc(-c2cc(=O)oc3cc(OC(=O)C4CCCCC4)c(Cl)cc23)cc1")
"Yes"
>>> assignedclass("COc1ccc2c(c1)-c1c(ssc1=S)C(C)(C)N2C(=O)CSC1=NCCS1")
"No"
>>> assignedclass("COc1ccc(-c2nc(-c3ccc(NC(=O)c4ccncc4)cc3)no2)cc1OC")
"No"
>>> assignedclass("Cn1c(/C(C#N)=C/c2ccc(-c3ccc(S(N)(=O)=O)cc3)o2)nc2ccccc21")
"No"

Returns: the outcome recorded for NC(=O)[C@H]1CC2(CC(c3cccc(NC(=O)COc4ccc(Cl)cc4)c3)=NO2)CN1C(=O)Cc1ccc([N+](=O)[O-])cc1 (stereo not given in full) in this assay.
No

Returns: the outcome recorded for COCCn1c(C)cc(C(=O)COC(=O)c2cccc(O)c2)c1C in this assay.
No

Returns: the outcome recorded for CC1CC(C)C[N+](=C2C=C(N3CCCC3)CC(C)(C)C2)C1 (stereo not given) in this assay.
No

Returns: the outcome recorded for OCCCNc1cc(-c2ccnc(Nc3cccc(Cl)c3)n2)ccn1 in this assay.
Yes

Returns: the outcome recorded for O=C(NCc1ccco1)c1ccc2c(c1)N(Cc1ccccc1)CCS2 in this assay.
No
